tested on: cGMP levels in RASMCs; experiment: Intracellular cGMP levels in RASMCs (radioimmunoassay); assay type: cell-based, rat; details: Table 1; 100 μM of test agent, RASMCs, 20 minutes
endpoint label: cGMP (fmol/10^5 cells) (fmol/10^5 Cells)

>>> df
                                   compound    experimental_target  assay_value
0  COc1ccc(C2CNC(=O)C2)cc1OC1CCCC1 (centres unmarked) [rolipram, reference compound]  cGMP levels in RASMCs        31.35
1  Cc1[nH]c(=O)c(C#N)cc1-c1ccncc1 [milrinone, reference compound]  cGMP levels in RASMCs        30.96
2  Cn1c(=O)c2c(ncn2CCN2CCN(c3ccccc3[N+](=O)[O-])CC2)n(C)c1=O  cGMP levels in RASMCs        55.28
3  CCCOc1ccccc1-c1nc2nn[nH]c2c(=O)[nH]1 [zaprinast, reference compound]  cGMP levels in RASMCs        50.82
4  Cn1c(=O)c2c(ncn2CCN2CCN(c3ccc([N+](=O)[O-])cc3)CC2)n(C)c1=O  cGMP levels in RASMCs        64.51
